Data origin, for the record: patent US9682141B2

- Assayed System: PI3K β (Homo sapiens (Human), UniProt P42338)
- Sequence (P42338 whole entry): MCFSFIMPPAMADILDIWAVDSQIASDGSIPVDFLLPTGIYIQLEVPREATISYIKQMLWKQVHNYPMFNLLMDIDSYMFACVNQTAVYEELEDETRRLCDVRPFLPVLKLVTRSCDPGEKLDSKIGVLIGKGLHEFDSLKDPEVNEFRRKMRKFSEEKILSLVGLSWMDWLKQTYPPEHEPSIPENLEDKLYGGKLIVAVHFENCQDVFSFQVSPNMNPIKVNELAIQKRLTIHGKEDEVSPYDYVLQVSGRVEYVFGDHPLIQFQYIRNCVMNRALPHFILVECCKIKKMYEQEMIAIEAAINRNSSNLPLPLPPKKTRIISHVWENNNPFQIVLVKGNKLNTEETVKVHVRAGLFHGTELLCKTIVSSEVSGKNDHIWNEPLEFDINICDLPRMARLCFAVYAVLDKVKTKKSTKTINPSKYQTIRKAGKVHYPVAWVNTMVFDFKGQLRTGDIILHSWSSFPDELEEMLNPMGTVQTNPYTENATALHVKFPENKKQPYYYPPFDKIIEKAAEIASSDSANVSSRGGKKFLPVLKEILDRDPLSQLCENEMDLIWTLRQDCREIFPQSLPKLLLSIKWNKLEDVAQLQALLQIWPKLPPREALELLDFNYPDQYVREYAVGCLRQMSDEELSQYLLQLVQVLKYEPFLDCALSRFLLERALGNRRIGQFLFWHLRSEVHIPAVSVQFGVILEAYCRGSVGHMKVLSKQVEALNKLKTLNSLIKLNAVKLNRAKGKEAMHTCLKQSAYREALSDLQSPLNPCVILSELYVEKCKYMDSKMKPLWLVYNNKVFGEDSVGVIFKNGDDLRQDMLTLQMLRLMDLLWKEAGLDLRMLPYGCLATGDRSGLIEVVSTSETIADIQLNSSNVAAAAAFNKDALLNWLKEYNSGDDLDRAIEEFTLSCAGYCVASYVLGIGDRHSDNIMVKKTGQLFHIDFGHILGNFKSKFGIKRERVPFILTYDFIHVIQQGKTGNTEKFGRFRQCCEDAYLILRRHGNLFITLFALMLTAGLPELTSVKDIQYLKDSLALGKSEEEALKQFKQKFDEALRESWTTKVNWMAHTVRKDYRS
- Sequence (P27986 whole entry partner): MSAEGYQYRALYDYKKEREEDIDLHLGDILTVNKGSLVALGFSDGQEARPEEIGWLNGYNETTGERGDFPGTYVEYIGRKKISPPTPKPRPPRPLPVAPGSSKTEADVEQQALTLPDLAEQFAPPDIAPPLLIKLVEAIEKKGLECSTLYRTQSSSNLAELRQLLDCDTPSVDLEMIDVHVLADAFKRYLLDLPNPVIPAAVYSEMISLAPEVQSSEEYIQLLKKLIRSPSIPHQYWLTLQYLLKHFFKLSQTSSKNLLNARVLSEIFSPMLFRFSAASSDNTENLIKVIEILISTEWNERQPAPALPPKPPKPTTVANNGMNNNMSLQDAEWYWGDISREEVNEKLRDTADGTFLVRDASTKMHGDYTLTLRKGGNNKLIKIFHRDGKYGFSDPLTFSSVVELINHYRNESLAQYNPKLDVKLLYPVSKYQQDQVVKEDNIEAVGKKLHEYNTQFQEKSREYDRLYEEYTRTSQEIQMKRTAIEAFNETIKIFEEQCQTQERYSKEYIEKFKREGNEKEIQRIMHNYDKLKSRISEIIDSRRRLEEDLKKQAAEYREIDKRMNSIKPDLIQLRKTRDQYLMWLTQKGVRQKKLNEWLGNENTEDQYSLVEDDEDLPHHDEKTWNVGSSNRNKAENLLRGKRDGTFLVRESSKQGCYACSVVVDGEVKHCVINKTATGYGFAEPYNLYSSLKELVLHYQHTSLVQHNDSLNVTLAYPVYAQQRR
pIC50: −log10 of the molar value.
Please respond with reported pIC50 for every item in the list.

INSERT INTO measurements (molecule_smiles, assayed_system, test_value) VALUES
  ('C[C@@H]1CCCN1C(=O)c1cnc2ccc(-c3ccc4oc(N)nc4c3)cn12', 'PI3K β (Homo sapiens (Human), UniProt P42338)', '> 5.00'),
  ('Cc1ccn(C2CCN(C(=O)c3cnc4ccc(-c5ccc6oc(N)nc6c5)cn34)CC2)n1', 'PI3K β (Homo sapiens (Human), UniProt P42338)', '< 5.00'),
  ('COc1ccc(-c2ccc3ncc(C(=O)N4CCOCC4)n3c2)cc1S(=O)(=O)Nc1ccccc1', 'PI3K β (Homo sapiens (Human), UniProt P42338)', '< 5.00');

Provide the reported pIC50 of each entry below, same order.
1. CN1CCN(c2ccc3ncc(-c4ccc5oc(N)nc5c4)cc3n2)CC1
2. CN1CCC(c2cnc3ccc(-c4ccc5oc(N)nc5c4)cc3n2)CC1

["> 5.00", "> 5.00"]
